Listed below: remaining activity at 25 µM values for each entry.
# SYSTEM TESTED: WIZ protein (HiBit-WIZ fusion protein) (Homo sapiens, UniProt O95785+Q96SW2)
# Construct: expressed in transfected cells
# Sequence (O95785 whole entry, the tested form may be a part): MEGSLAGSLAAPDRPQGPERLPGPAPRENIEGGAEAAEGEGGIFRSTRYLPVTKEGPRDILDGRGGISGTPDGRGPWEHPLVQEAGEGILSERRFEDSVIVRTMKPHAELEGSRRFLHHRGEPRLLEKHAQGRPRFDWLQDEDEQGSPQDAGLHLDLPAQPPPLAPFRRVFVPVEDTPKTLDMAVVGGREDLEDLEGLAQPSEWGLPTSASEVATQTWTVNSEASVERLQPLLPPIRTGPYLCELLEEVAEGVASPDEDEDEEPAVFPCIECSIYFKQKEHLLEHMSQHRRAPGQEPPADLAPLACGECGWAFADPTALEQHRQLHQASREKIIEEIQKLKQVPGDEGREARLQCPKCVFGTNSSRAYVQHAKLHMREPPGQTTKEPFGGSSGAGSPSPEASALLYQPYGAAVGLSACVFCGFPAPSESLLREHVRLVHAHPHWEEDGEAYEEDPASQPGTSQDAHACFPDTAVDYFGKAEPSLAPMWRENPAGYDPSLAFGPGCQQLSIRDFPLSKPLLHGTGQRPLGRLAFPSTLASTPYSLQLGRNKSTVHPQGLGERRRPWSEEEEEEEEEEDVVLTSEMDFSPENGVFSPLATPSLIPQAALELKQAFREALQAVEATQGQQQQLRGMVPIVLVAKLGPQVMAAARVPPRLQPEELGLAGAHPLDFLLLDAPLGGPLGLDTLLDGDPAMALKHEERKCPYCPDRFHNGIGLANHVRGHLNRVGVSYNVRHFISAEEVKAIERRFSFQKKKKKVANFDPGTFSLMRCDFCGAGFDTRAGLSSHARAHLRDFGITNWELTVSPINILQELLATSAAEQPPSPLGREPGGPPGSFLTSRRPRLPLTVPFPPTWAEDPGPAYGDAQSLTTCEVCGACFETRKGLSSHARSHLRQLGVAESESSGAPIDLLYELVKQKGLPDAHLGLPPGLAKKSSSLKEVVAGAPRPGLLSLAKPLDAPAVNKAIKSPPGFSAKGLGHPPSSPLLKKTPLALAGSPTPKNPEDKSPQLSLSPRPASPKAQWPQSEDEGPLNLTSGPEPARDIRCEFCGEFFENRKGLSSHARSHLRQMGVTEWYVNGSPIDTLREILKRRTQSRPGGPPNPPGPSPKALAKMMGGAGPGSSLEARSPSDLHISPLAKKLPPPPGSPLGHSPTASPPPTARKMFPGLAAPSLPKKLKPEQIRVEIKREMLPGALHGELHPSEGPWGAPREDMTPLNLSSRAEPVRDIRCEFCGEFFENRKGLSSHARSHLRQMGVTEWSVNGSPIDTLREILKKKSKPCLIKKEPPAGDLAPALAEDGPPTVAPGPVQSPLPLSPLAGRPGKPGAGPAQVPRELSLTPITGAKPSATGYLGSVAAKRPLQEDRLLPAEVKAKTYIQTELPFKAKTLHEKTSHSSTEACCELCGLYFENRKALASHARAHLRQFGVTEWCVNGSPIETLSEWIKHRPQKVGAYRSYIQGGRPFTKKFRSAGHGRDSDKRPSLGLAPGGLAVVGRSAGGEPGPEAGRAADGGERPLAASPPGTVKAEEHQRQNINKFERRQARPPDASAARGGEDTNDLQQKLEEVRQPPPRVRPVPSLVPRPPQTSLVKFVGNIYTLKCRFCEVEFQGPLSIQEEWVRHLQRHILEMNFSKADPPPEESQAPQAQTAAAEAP
# Sequence (Q96SW2 whole entry, the tested form may be a part): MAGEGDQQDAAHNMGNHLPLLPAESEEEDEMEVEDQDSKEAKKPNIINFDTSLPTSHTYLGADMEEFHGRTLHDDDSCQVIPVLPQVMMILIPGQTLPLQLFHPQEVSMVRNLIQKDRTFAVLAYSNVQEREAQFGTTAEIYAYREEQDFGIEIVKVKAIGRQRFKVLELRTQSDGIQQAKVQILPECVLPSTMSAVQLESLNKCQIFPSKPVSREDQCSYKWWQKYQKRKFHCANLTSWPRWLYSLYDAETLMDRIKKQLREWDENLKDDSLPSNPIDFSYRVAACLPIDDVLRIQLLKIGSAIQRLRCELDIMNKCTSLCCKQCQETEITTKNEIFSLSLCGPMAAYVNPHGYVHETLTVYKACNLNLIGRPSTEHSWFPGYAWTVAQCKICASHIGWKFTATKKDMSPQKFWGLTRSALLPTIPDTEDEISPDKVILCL
# Sequence (Q16531 whole entry partner, the tested form may be a part): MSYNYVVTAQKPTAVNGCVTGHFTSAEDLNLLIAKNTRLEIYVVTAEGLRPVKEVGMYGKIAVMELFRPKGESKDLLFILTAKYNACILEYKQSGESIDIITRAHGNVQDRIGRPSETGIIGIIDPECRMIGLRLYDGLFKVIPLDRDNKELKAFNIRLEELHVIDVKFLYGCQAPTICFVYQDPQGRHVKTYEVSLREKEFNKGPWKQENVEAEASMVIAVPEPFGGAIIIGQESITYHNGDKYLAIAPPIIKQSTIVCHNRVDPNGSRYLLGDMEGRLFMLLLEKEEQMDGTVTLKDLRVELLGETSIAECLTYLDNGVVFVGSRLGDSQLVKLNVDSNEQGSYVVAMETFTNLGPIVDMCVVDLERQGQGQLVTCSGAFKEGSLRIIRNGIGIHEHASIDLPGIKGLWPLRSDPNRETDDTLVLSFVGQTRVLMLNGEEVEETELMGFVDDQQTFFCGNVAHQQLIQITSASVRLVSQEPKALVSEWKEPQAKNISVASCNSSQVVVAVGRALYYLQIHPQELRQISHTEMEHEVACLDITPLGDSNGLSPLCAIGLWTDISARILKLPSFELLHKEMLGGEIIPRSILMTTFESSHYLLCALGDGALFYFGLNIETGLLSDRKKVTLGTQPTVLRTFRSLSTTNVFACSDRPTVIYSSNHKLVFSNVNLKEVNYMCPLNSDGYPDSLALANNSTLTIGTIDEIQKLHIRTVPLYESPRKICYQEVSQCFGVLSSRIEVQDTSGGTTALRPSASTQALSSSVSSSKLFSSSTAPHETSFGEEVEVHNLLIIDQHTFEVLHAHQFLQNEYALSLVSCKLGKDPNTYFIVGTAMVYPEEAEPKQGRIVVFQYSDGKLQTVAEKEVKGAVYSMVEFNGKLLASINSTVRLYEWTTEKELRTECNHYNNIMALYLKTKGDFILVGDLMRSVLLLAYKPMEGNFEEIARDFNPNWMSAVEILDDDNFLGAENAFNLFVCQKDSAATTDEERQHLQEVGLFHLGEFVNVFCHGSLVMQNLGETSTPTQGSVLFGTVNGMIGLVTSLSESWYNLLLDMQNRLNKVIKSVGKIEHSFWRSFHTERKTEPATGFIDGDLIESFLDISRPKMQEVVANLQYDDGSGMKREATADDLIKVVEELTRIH
# ASSAY TEXT: Quantification of WIZ protein levels in HiBit tag fusion protein assay (WIZ HiBit assay in 293T cells)
# Format: cell-based
# MEASUREMENT PARAMETERS: HEK-293T, DMSO-normalized, curve-fitted percentage of WIZ-HiBit remaining at 25 uM; 293T cells; read-out: WIZ Amax
State just the number; it will be interpreted in %.

Before answering, review these 5 worked examples.
CC(C)N1CCN(Cc2ccn3ncc(N4CCC(=O)NC4=O)c3c2)CC1    34
O=C1CCN(c2cnn3ccc(CN4CCN(CC5CCCC5)CC4)cc23)C(=O)N1    19
O=C1CCN(c2cnn3ccc(CC4CCN(Cc5ccc(C(F)(F)F)cc5)CC4)cc23)C(=O)N1    37
CC(C)CN1CC(Cc2ccn3ncc(N4CCC(=O)NC4=O)c3c2)C1    73
C[C@H]1C[C@H](Cc2ccn3ncc(N4CCC(=O)NC4=O)c3c2)CCN1CC1CC(F)(F)C1    19

Can you look up the measured remaining activity at 25 µM of "O=C1CCN(c2cnn3ccc(CN4CCN(CC5CCC5)CC4)cc23)C(=O)N1" for me? 23

Can you look up the measured remaining activity at 25 µM of "O=C1CCN(c2cnn3ccc(CC4CCN(Cc5nccs5)CC4)cc23)C(=O)N1" for me? 39

Can you look up the measured remaining activity at 25 µM of "C[C@H]1C[C@H](Cc2ccn3ncc(N4CCC(=O)NC4=O)c3c2)CCN1C1CCC1" for me? 12

---

# SYSTEM TESTED: WIZ protein (HiBit-WIZ fusion protein) (Homo sapiens, UniProt O95785+Q96SW2)
# Construct: expressed in transfected cells
# ASSAY TEXT: Quantification of WIZ protein levels in HiBit tag fusion protein assay (WIZ HiBit assay in 293T cells)
# Assay type: cell-based
# MEASUREMENT PARAMETERS: HEK-293T, DMSO-normalized, curve-fitted percentage of WIZ-HiBit remaining at 25 uM; 293T cells; read-out: WIZ Amax
REPORTED METRIC: remaining activity at 25 µM (%)
State just the number; it will be interpreted in %.

Before answering, review these 3 worked examples.
C[C@H]1CN(Cc2ccn3ncc(N4CCC(=O)NC4=O)c3c2)CCN1CC1CC(F)(F)C1 [Example 205]    18
Cc1ccc(CN2CCC(Cc3ccn4ncc(N5CCC(=O)NC5=O)c4c3)CC2)cc1 [Example 47]    31
CCS(=O)(=O)N1CC[C@@H](Cc2ccn3ncc(-n4ccc(=O)[nH]c4=O)c3c2)C[C@@H]1C [Example 356]    17

Report remaining activity at 25 µM for C[C@H]1C[C@H](Cc2ccn3ncc(N4CCC(=O)NC4=O)c3c2)CCN1C[C@H]1C[C@@H](F)[C@@H](F)C1 [Example 304] tested on WIZ protein (HiBit-WIZ fusion protein) (Homo sapiens, UniProt O95785+Q96SW2). 13

Report remaining activity at 25 µM for O=C1CCN(c2cnn3ccc(CN4CCN5C(=O)COC[C@H]5C4)cc23)C(=O)N1 [Example 314] tested on WIZ protein (HiBit-WIZ fusion protein) (Homo sapiens, UniProt O95785+Q96SW2). 66

---

Listed below: Dmax at 25 µM values for each entry.
# SYSTEM TESTED: WIZ protein (HiBit-WIZ fusion protein) (Homo sapiens, UniProt O95785+Q96SW2)
# Construct: expressed in transfected cells
# ASSAY TEXT: Quantification of WIZ protein levels in HiBit tag fusion protein assay (WIZ HiBit assay in 293T cells)
# Format: cell-based
# MEASUREMENT PARAMETERS: HEK-293T, 100 − Amax, at 25 uM; 293T cells; read-out: % degradation of WIZ (100 − Amax)
State just the number; it will be interpreted in %.

CC(C)(F)CN1CCN(Cc2ccn3ncc(N4CCC(=O)NC4=O)c3c2)CC1    55
O=C1CCN(c2cnn3ccc(CC4CCN(CC5(C(F)(F)F)CC5)CC4)cc23)C(=O)N1    64
CC(C)CN1CCCN(Cc2ccn3ncc(N4CCC(=O)NC4=O)c3c2)CC1    41
O=C1CCN(c2cnn3ccc(CN4C[C@H]5CC[C@@H](C4)N5CC4CCCCC4)cc23)C(=O)N1    42
CC(C)CC(C)(C)N1CCC(Cc2ccn3ncc(N4CCC(=O)NC4=O)c3c2)CC1    83
C[C@H]1C[C@H](Cc2ccn3ncc(N4CCC(=O)NC4=O)c3c2)CCN1Cc1cccnc1    90
CC(C)C(=O)N1CC[C@@H](Cc2ccn3ncc(N4CCC(=O)NC4=O)c3c2)C[C@@H]1C    80
CO[C@H]1C[C@@H](CN2CC[C@@H](Cc3ccn4ncc(N5CCC(=O)NC5=O)c4c3)C[C@@H]2C)C1    80

Can you look up the measured Dmax at 25 µM of "O=C1CCN(c2cnn3ccc(CC4CCN(CC5CCC5)CC4)cc23)C(=O)N1" for me? 82

Can you look up the measured Dmax at 25 µM of "O=C1CCN(c2cnn3ccc(CN4CCN(CC5CCC5)CC4)cc23)C(=O)N1" for me? 77

Can you look up the measured Dmax at 25 µM of "O=C1CCN(c2cnn3ccc(CN4CCN(CCC5CCCCC5)C(=O)C4)cc23)C(=O)N1" for me? 13

Can you look up the measured Dmax at 25 µM of "O=C1CCN(c2cnn3ccc(CN4CCN5[C@@H](CCS5(=O)=O)C4)cc23)C(=O)N1" for me? 53

---

# SYSTEM TESTED: WIZ protein (HiBit-WIZ fusion protein) (Homo sapiens, UniProt O95785+Q96SW2)
# Construct: expressed in transfected cells
# ASSAY TEXT: Quantification of WIZ protein levels in HiBit tag fusion protein assay (WIZ HiBit assay in 293T cells)
# Assay type: cell-based
# MEASUREMENT PARAMETERS: WIZ HiBit assay in 293T cells; 10-point, 5-fold dose response, highest concentration 25 μM, about 18 hours; read-out: WIZ AC50
Label 1 when DC50 is strictly below 40 nM; otherwise label -1.

Reference set (3 entries):
O=C1CCN(c2cnn3ccc(CC4(F)CCN(CC5CCCCC5)CC4)cc23)C(=O)N1 [Example 123]    -1
CC(CN1CCC(Cc2ccn3ncc(N4CCC(=O)NC4=O)c3c2)CC1)C1CCCCC1 (stereo not shown) [Example 10]    1
CC(C)CN1CCC(C(C)c2ccn3ncc(N4CCC(=O)NC4=O)c3c2)CC1 (stereo not shown) [Example 267]    -1

For O=C1CCN(c2cnn3ccc(CC4CCN(S(=O)(=O)CC5CCCCC5)CC4)cc23)C(=O)N1 [Example 80] , is the recorded DC50 below the cut-off of 40 nM? -1

---

# SYSTEM TESTED: WIZ protein (HiBit-WIZ fusion protein) (Homo sapiens, UniProt O95785+Q96SW2)
# Construct: expressed in transfected cells
# ASSAY TEXT: Quantification of WIZ protein levels in HiBit tag fusion protein assay (WIZ HiBit assay in 293T cells)
# Type: cell-based
# MEASUREMENT PARAMETERS: WIZ HiBit assay in 293T cells; 10-point, 5-fold dose response, highest concentration 25 μM, about 18 hours; read-out: WIZ AC50
Listed below: DC50 values for each entry.
State just the number; it will be interpreted in nM.

Before answering, review these 3 worked examples.
O=C1CCN(c2cnn3ccc(CN4CCN(Cc5cccc(F)c5)CC4)cc23)C(=O)N1    228
O=C1CCN(c2cnn3ccc(CC4CCN(S(=O)(=O)CC5CC5)CC4)cc23)C(=O)N1    55
O=C1CCN(c2cnn3ccc(CC4CCN(Cc5cccc(C(F)(F)F)c5)CC4)cc23)C(=O)N1    40

Now for a further molecule.
Can you look up the measured DC50 of O=C1CCN(c2cnn3ccc(CC4CCN(CC5CCCCC5)C4)cc23)C(=O)N1 (stereo not shown) for me? 830

---

# SYSTEM TESTED: WIZ protein (HiBit-WIZ fusion protein) (Homo sapiens, UniProt O95785+Q96SW2)
# Construct: expressed in transfected cells
# ASSAY TEXT: Quantification of WIZ protein levels in HiBit tag fusion protein assay (WIZ HiBit assay in 293T cells)
# Type: cell-based
# MEASUREMENT PARAMETERS: HEK-293T, DMSO-normalized, curve-fitted percentage of WIZ-HiBit remaining at 25 uM; 293T cells; read-out: WIZ Amax
Listed below: remaining activity at 25 µM values for each entry.
Remember to put the unit after the number in your answer.

CC(C)[C@H]1CN(Cc2ccn3ncc(N4CCC(=O)NC4=O)c3c2)CCN1CC1CCOCC1    100%
CC(c1cccc(F)c1)N1CCC(Cc2ccn3ncc(N4CCC(=O)NC4=O)c3c2)CC1 (centres unmarked)    32%
C[C@@H]1CN(Cc2ccn3ncc(N4CCC(=O)NC4=O)c3c2)C[C@H](C)N1CC1CCOCC1    22%
CC(C)CN1CCN(Cc2ccn3ncc(N4CCC(=O)NC4=O)c3c2)[C@@H](C)C1    36%
C[C@H]1CN(Cc2ccn3ncc(N4CCC(=O)NC4=O)c3c2)CCN1Cc1cccnc1    40%

Can you look up the measured remaining activity at 25 µM of "CC(C)CC(C)(C)N1CCC(Cc2ccn3ncc(N4CCC(=O)NC4=O)c3c2)CC1" for me? 17%

Can you look up the measured remaining activity at 25 µM of "CC(C)CN1CCN(Cc2ccn3ncc(N4CCC(=O)NC4=O)c3c2)CC1" for me? 21%

Can you look up the measured remaining activity at 25 µM of "O=C1CCN(c2cnn3ccc(CC4CCN(CC(=O)N5CCCCC5)CC4)cc23)C(=O)N1" for me? 41%

All values here come from patent US11787785B2.
